B1: CDC34 (parent)
chain: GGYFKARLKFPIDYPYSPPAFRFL

variants of: B1; test: protein stability index of a GFP-peptide fusion (GPS, HEK-293T) (PSI 1-6); higher = more stable; details: c terminus: a fixed tail appended;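 note: lentivirally expressed fusions sorted by FACS into six bins by GFP to DsRed ratio, PSI derived from sequencing read proportions per bin multiplied by bin number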
Assign class by protein stability index: not lower than 3 means true; lower than 3 means false.

Solved cases (2 shown):
{"Variant Description": "F21S", "Class Name": "false"}
{"Variant Description": "R7C", "Class Name": "false"}

stdin: Has R22V a recorded protein stability index greater than or equal to 3?
stdout: true

stdin: Has R7G a recorded protein stability index greater than or equal to 3?
stdout: false

stdin: Has Y14N a recorded protein stability index greater than or equal to 3?
stdout: false
